Data credit: ChEMBL document CHEMBL3137667

method.description: Highest frequency of moderate liver toxicity observed during clinical trials, expressed as a percentage. [column '% BIOL' in source]
cond: human
readout: Hepatotoxicity (moderate) (%)
One number for each entry, in %.

QUERY: Which measured Hepatotoxicity (moderate) value corresponds to C[C@@H]1O[C@@H]1P(=O)(O)O ?
RESULT: 23.8

QUERY: Which measured Hepatotoxicity (moderate) value corresponds to Cc1cn([C@H]2CC[C@@H](CO)O2)c(=O)[nH]c1=O ?
RESULT: 30

QUERY: Which measured Hepatotoxicity (moderate) value corresponds to Cc1c(N(C)CS(=O)(=O)[O-])c(=O)n(-c2ccccc2)n1C.[Na+] [DIPYRONE SODIUM] ?
RESULT: 0

QUERY: Which measured Hepatotoxicity (moderate) value corresponds to CC/C=C(\C(=O)N[C@@H]1C(=O)N2C(C(=O)OCOC(=O)C(C)(C)C)=C(COC(N)=O)CS[C@H]12)c1csc(N)n1 ?
RESULT: 33.3

QUERY: Which measured Hepatotoxicity (moderate) value corresponds to O=C(O)/C=C/C(=O)O ?
RESULT: 59

Below is a list of molecules. For each, state its recorded Hepatotoxicity (moderate).
1. NC(=O)CCC/N=C(\c1ccc(Cl)cc1)c1cc(F)ccc1O [PROGABIDE]
2. O=c1cc[nH]c(=S)[nH]1
3. CCCN(CCC)S(=O)(=O)c1ccc(C(=O)O)cc1

RESULT:
1. 30
2. 0
3. 0

Below is a list of molecules. For each, state its recorded Hepatotoxicity (moderate).
1. C[C@]12CC[C@H]3[C@@H](CCC4=CC(=O)CC[C@@H]43)[C@@H]1CC[C@@H]2O
2. NNC(=O)c1ccncc1

RESULT:
1: 0; 2: 51.2

Below is a list of molecules. For each, state its recorded Hepatotoxicity (moderate).
1. CNc1nc(N(C)C)nc(N(C)C)n1
2. CC(C)NCC1CCc2cc(CO)c([N+](=O)[O-])cc2N1 (centres undefined)
3. C=CC(N)CCC(=O)O (centres undefined)
4. CC(=O)Nc1c(I)c(NC(C)=O)c(I)c(C(=O)O)c1I
5. CCc1cccc2c3c([nH]c12)C(CC)(CC(=O)O)OCC3 (centres undefined)
6. COc1ccc(NS(=O)(=O)c2ccc(N)cc2)nn1
7. CCN1CCC[C@H]1CNC(=O)c1c(OC)ccc(Br)c1OC [REMOXIPRIDE]

RESULT:
1. 31
2. 0
3. 13.3
4. 0
5. 4
6. 0
7. 6.4

Below is a list of molecules. For each, state its recorded Hepatotoxicity (moderate).
1. CC(=O)NC[C@H]1CN(c2ccc(N3CCOCC3)c(F)c2)C(=O)O1
2. CO[C@]12CC[C@@]3(C[C@@H]1[C@](C)(O)C(C)(C)C)[C@H]1Cc4ccc(O)c5c4[C@@]3(CCN1CC1CC1)[C@H]2O5
3. C[C@H]1C[C@@H]2[C@H]([C@@H](O)C[C@@]3(C)[C@H]2CC[C@]3(O)C(=O)CO)[C@@]2(C)C=CC(=O)C=C12
4. C=COCC(F)(F)F
5. COC1=C(OC)C(=O)C(CCCCCCCCCCO)=C(C)C1=O

RESULT:
1. 1
2. 71
3. 0
4. 30.4
5. 2.3

====

cond: human
readout: Hepatotoxicity (cytolytic)
Numbers only.

Example compounds with recorded Hepatotoxicity (cytolytic):
QUERY: Which measured Hepatotoxicity (cytolytic) value corresponds to Cc1c(C)c2ccc(OCCCN3CCN(Cc4ccc(Cl)cc4)CC3)cc2oc1=O ?
RESULT: 0

QUERY: Which measured Hepatotoxicity (cytolytic) value corresponds to CCC1(C)CC(=O)NC1=O (stereo not given) [ETHOSUXIMIDE] ?
RESULT: 0

Below is a list of compounds. For each, state its recorded Hepatotoxicity (cytolytic).
1. Cc1c(N)nc([C@@H](CC(N)=O)NC[C@@H](N)C(N)=O)nc1C(=O)N[C@@H](C(=O)N[C@@H](C)[C@H](O)[C@@H](C)C(=O)N[C@H](C(=O)NCCc1nc(-c2nc(C(=O)NCCCN(C)CCCN(Cc3ccc(OCc4ccccc4)c(OCc4ccccc4)c3)Cc3ccc(OCc4ccccc4)c(OCc4ccccc4)c3)cs2)cs1)[C@@H](C)O)C(O[C@H]1O[C@@H](CO)[C@H](O)[C@@H](O)[C@H]1O[C@H]1O[C@@H](CO)[C@@H](O)[C@H](OC(N)=O)[C@@H]1O)c1c[nH]cn1 (stereo not given in full)
2. Cc1c(O)cccc1C(=O)N[C@@H](CSc1ccccc1)[C@H](O)CN1C[C@H]2CCCC[C@H]2C[C@H]1C(=O)NC(C)(C)C
3. O=c1[nH]c2ccccc2n1CCCN1CCC(n2c(=O)[nH]c3cc(Cl)ccc32)CC1

RESULT:
[0, 3, 1]

====

cond: human, serum
Label rule not met if Hepatotoxicity (moderate) falls below 3; label rule met in every other case.

Use the examples below as a reference point.
QUERY: Would you say C[C@@H](O)[C@H]1C(=O)N2C(C(=O)O)=C(S[C@@H]3CN[C@H](C(=O)N(C)C)C3)[C@H](C)[C@H]12 shows Hepatotoxicity (moderate) at minimum 3?
RESULT: rule met

QUERY: Would you say CNCCCC12CCC(c3ccccc31)c1ccccc12 shows Hepatotoxicity (moderate) at minimum 3?
RESULT: rule met

QUERY: Would you say C[C@H]1c2cccc(O)c2C(=O)C2=C(O)[C@]3(O)C(=O)C(C(N)=O)=C(O)[C@@H](N(C)C)[C@@H]3[C@@H](O)[C@@H]21.O shows Hepatotoxicity (moderate) at minimum 3?
RESULT: rule met

Others:
QUERY: Would you say CN1c2c(oc(=O)n(-c3ccccn3)c2=O)-c2ccccc2S1(=O)=O shows Hepatotoxicity (moderate) at minimum 3?
RESULT: rule not met

QUERY: Would you say C=C[C@H]1C[N@@]2CC[C@H]1C[C@H]2[C@H](O)c1ccnc2ccc(OC)cc12 shows Hepatotoxicity (moderate) at minimum 3?
RESULT: rule not met

====

cond: human
For each of the molecules below, state its Hepatotoxicity (steatosis).

Example molecules with recorded Hepatotoxicity (steatosis):
QUERY: Which measured Hepatotoxicity (steatosis) value corresponds to FC(F)OC(F)(F)C(F)Cl (centres undefined) ?
RESULT: 2

QUERY: Which measured Hepatotoxicity (steatosis) value corresponds to Clc1ccc(C(Cn2ccnc2)OCc2ccsc2Cl)c(Cl)c1 (centres undefined) ?
RESULT: 0

QUERY: Which measured Hepatotoxicity (steatosis) value corresponds to COc1c(N2CCNC(C)C2)c(F)cc2c(=O)c(C(=O)O)cn(C3CC3)c12 (centres undefined) ?
RESULT: 2

QUERY: Which measured Hepatotoxicity (steatosis) value corresponds to CC(=O)Oc1cccc2c1C(=O)c1c(OC(C)=O)cc(C(=O)O)cc1C2=O ?
RESULT: 0

QUERY: Which measured Hepatotoxicity (steatosis) value corresponds to CCOC(=O)NNc1nncc2ccccc12 ?
RESULT: 0

Below is a list of molecules. For each, state its recorded Hepatotoxicity (steatosis).
1. c1ccc(C2(c3ccccc3)CC2C2=NCCN2)cc1 (centres undefined)
2. C[C@]12C=CC(=O)C=C1CC[C@@H]1[C@@H]2C(=O)C[C@@]2(C)[C@H]1CC[C@]2(O)C(=O)CO
3. CC(CN(C)C)CN1c2ccccc2Sc2ccc(C#N)cc21 (centres undefined)
4. CCOC(=O)[C@H](CCc1ccccc1)N[C@@H](C)C(=O)N1[C@H](C(=O)O)C[C@H]2CCCC[C@@H]21

RESULT:
[0, 0, 0, 0]

====

cond: human
readout: Hepatotoxicity (steatosis)
One number for each entry.

Example molecules with recorded Hepatotoxicity (steatosis):
QUERY: Which measured Hepatotoxicity (steatosis) value corresponds to CN1CCN(C2=Nc3ccccc3Oc3ccc(Cl)cc32)CC1 ?
RESULT: 0

QUERY: Which measured Hepatotoxicity (steatosis) value corresponds to O=NN(CCCl)C(=O)NCCCl ?
RESULT: 0

QUERY: Which measured Hepatotoxicity (steatosis) value corresponds to NCCCC[C@H](N[C@@H](CCc1ccccc1)C(=O)O)C(=O)N1CCC[C@H]1C(=O)O [LISINOPRIL ANHYDROUS] ?
RESULT: 0

QUERY: Which measured Hepatotoxicity (steatosis) value corresponds to CCOC(=O)/C=C(C)/C=C/C=C(C)/C=C/c1c(C)cc(OC)c(C)c1C [ETRETINATE] ?
RESULT: 5

QUERY: Which measured Hepatotoxicity (steatosis) value corresponds to CC[C@@]1(O)C(=O)OCc2c1cc1n(c2=O)Cc2cc3c(CN(C)C)c(O)ccc3nc2-1 ?
RESULT: 0

Below is a list of molecules. For each, state its recorded Hepatotoxicity (steatosis).
1. CCCC(C)(COC(N)=O)COC(=O)NC(C)C (stereo unspecified)
2. COC(=O)C[C@](O)(CCCC(C)(C)O)C(=O)O[C@@H]1C(OC)=C[C@]23CCCN2CCc2cc4c(cc2[C@H]13)OCO4 [OMACETAXINE MEPESUCCINATE]
3. C[C@]12CC[C@@H]3c4ccc(OS(=O)(=O)O)cc4CC[C@H]3[C@@H]1CCC2=O
4. Nc1ccc(S(N)(=O)=O)cc1 [SULFANILAMIDE]
5. Oc1ccc2[nH]cc(CCCCN3CC=C(c4ccccc4)CC3)c2c1

RESULT:
0
0
0
1
0

Below is a list of molecules. For each, state its recorded Hepatotoxicity (steatosis).
1. CC(=O)[C@@]1(O)CC[C@H]2[C@@H]3CCC4=CC(=O)CC[C@]4(C)[C@H]3CC[C@@]21C [HYDROXYPROGESTERONE]
2. CNC(=C[N+](=O)[O-])NCCSCc1ccc(CN(C)C)o1
3. Cc1c(F)c(N2CCNC(C)C2)cc2c1c(=O)c(C(=O)O)cn2C1CC1 (stereo unspecified)
4. CCCC(=O)O[C@H]1[C@H](C)O[C@@H](O[C@H]2[C@H](N(C)C)[C@@H](O)[C@H](O[C@H]3[C@@H](CC=O)C[C@@H](C)[C@@H](O)/C=C/C=C/C[C@@H](C)OC(=O)C[C@@H](O)[C@@H]3OC)O[C@@H]2C)C[C@@]1(C)OC(=O)CC
5. CC(C)NCC(O)COc1ccc(COCCOC(C)C)cc1 (stereo unspecified)
6. CS(=O)(=O)c1ccc(C2=C(c3ccccc3)C(=O)OC2)cc1

RESULT:
1: 0; 2: 1; 3: 0; 4: 0; 5: 0; 6: 0
